Biological target: UniProtKB P43115
Assay: Cellular in vitro assay for determining EP3 receptor activity (human EP3 cell line, sulprostone-stimulated calcium luminescence)
Details: CHO cells expressing human EP3 and mitochondrial Clytin; antagonist mode, sulprostone at EC50; read-out: EP3 CHO mtCLY ANTAG IC50
Protocol: B-1. Cellular In Vitro Assay for Determining EP3 Receptor Activity The identification of antagonists of the EP3 receptor from humans and rats as well as the quantification of the activity of the compounds of the invention was carried out using recombinant cell lines. […] Antagonists inhibit the receptor signaling, leading to reduced calcium release and luminescence. The bioluminescence of the cell lines is detected using a suitable luminometer (Trends Pharmacol. Sci. 1996, 17, 235-237). […]
Property name: IC50 (nM)
Report only the number, with the unit nM understood.

Field: example entries. Status: answers known.
- Compound: "Cc1cc(-c2cn3nc(C(=O)N[C@H](C)C(C)C)c(C4CC4)c3c(=O)[nH]2)ccc1C(F)(F)F [Example 1-139]"
  IC50 [nM]: 7.55
- Compound: "COc1ccc2c(c1)C(NC(=O)c1cc3c(=O)[nH]c(-c4ccc5ccccc5c4)cn3n1)CC(C)(C)O2 (stereo not shown) [Example 2-16]"
  IC50 [nM]: 6.2

Query: IC50 lookup needed for Cc1ccc(-c2cn3nc(C(=O)Nc4cccc(O)c4)c(C(F)(F)F)c3c(=O)[nH]2)cc1F [6-144] , thanks.
Result: 3.5

Query: For O=C(NC(CO)c1ccc(F)cc1)c1cc2c(=O)[nH]c(-c3ccc4ccccc4c3)cn2n1 (stereo not shown) [Example 1-61] , what is its reported IC50?
Result: 4.2

###

target: human EP3 receptor (Homo sapiens, UniProt P43115); construct: expressed in transfected cells; host or cells: CHO K1 (Chinese Hamster Ovary), stably co-transfected with Galpha16 and mitochondrial clytin; test: Cellular in vitro assay for determining EP3 receptor activity (human EP3 cell line, sulprostone-stimulated calcium luminescence); type: cell-based; conditions: CHO cells expressing human EP3 and mitochondrial Clytin; antagonist mode, sulprostone at EC50; read-out: EP3 CHO mtCLY ANTAG IC50
Sequence (P43115 whole entry): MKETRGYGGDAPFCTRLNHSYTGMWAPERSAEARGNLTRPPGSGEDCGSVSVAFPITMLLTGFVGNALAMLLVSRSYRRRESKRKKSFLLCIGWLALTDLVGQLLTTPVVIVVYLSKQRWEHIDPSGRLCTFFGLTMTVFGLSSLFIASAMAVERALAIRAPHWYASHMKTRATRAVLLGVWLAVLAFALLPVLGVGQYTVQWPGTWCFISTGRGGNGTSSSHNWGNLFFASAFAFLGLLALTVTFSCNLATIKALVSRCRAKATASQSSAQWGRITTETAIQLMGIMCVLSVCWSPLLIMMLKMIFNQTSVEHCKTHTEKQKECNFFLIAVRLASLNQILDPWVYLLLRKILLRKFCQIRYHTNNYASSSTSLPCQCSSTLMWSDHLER
Mark TRUE for IC50 under 4 nM, FALSE if at or over.

- Compound: "O=C(N[C@@H](c1ccc(F)cc1)C(F)(F)CO)c1nn2cc(-c3ccc(Cl)cc3)[nH]c(=O)c2c1C1CC1"
  Assay system: "human EP3 receptor (Homo sapiens, UniProt P43115)"
  Assigned label: "TRUE"
- Compound: "Cc1ccc(-c2cn3nc(C(=O)N[C@@H](c4ccc(F)cc4)C(C)(C)O)c(CC(F)(F)F)c3c(=O)[nH]2)cc1F"
  Assay system: "human EP3 receptor (Homo sapiens, UniProt P43115)"
  Assigned label: "TRUE"
- Compound: "Cc1c(C(=O)NC(CCO)c2ccccc2Cl)nn2c(C)c(-c3ccc4ccccc4c3)[nH]c(=O)c12 (centres unmarked)"
  Assay system: "human EP3 receptor (Homo sapiens, UniProt P43115)"
  Assigned label: "TRUE"
- Compound: "CCn1cc(Cl)c(CNC(=O)c2nn3c(C)c(-c4ccc5ccccc5c4)[nH]c(=O)c3c2C)n1"
  Assay system: "human EP3 receptor (Homo sapiens, UniProt P43115)"
  Assigned label: "TRUE"
- Compound: "CCc1ccc(C(C)NC(=O)c2cc3c(=O)[nH]c(-c4ccc5ccccc5c4)cn3n2)cc1 (centres unmarked)"
  Assay system: "human EP3 receptor (Homo sapiens, UniProt P43115)"
  Assigned label: "TRUE"

Query: Please indicate whether the reported IC50 of Cc1ccc(-c2cn3nc(C(=O)N[C@@H](c4ccc(F)cc4)C(C)(C)O)cc3c(=O)[nH]2)c(F)c1C is strictly below 4 nM.
Result: FALSE

Query: Hello, I'm reviewing records and need to know if IC50 of COc1ccc(C(CCO)NC(=O)c2cc3c(=O)[nH]c(-c4ccc(C)c(C)c4)cn3n2)cc1 (racemic) is below 4 nM. Could you check?
Result: TRUE

Query: Please determine if COc1ccc(C2(NC(=O)c3nn4cc(-c5ccc(C)c(F)c5)[nH]c(=O)c4c3C3CC3)CN(C)C2)cc1 is below 4 nM in terms of IC50.
Result: TRUE

Query: Please check: IC50 for Cc1ccc(-c2cn3nc(C(=O)NC(CN(C)C)c4ccc(F)cc4)c(C4CC4)c3c(=O)[nH]2)cc1C (single isomer, unassigned) [6-446] , strictly under 4 nM or not?
Result: FALSE

Query: Dear reviewer, please state whether Cc1cc(-c2cn3nc(C(=O)N[C@H](CN4CCC(F)(F)C4)c4ccc(F)cc4)c(C4CC4)c3c(=O)[nH]2)ccc1Cl has IC50 strictly beneath 4 nM.
Result: FALSE

Query: Decide: IC50 of N#Cc1c(C(=O)NC(CO)c2cc(Cl)cc(Cl)c2)nn2cc(-c3ccc4ccccc4c3)[nH]c(=O)c12 (centres unmarked) strictly below 4 nM?
Result: FALSE

Query: Does Cc1cccc2ncc(-c3cn4nc(C(=O)NCc5ccc(CN6CCCC6)cc5)c(C(C)C)c4c(=O)[nH]3)cc12 have IC50 strictly under 4 nM?
Result: FALSE

Query: For this compound, is IC50 lower than 4 nM? COc1ccccc1C(C)NC(=O)c1cc2c(=O)[nH]c(-c3ccc4ccccc4c3)cn2n1 (centres unmarked)
Result: TRUE

Query: # TODO verify IC50 < 4 nM strictly for this compound: Cc1c(C(=O)N[C@H](C)c2ccccc2)nn2c(C)c(-c3ccc4ccccc4c3)[nH]c(=O)c12
Result: TRUE

###

target: human EP3 receptor (Homo sapiens, UniProt P43115); assay: Cellular in vitro assay for determining EP3 receptor activity (human EP3 cell line, sulprostone-stimulated calcium luminescence); conditions: CHO cells expressing human EP3 and mitochondrial Clytin; antagonist mode, sulprostone at EC50; read-out: EP3 CHO mtCLY ANTAG IC50
Each record here notes measured pIC50.
Scale for pIC50: -log10 of concentration given in mol/L; no unit attached.

- Compound: "COc1ccc(C(C)NC(=O)c2cc3c(=O)[nH]c(-c4ccc(Cl)c(C)c4)cn3n2)cn1 (stereo not shown)"
  pIC50: 8.40
- Compound: "Cc1ccc(-c2cn3nc(C(=O)NC4(c5ccc(F)cc5)CCN(C)C4)cc3c(=O)[nH]2)cc1C (single isomer, unassigned) [6-364]"
  pIC50: 8.19
- Compound: "O=C(N[C@H](CN1CCOCC1)c1ccc(F)cc1)c1nn2cc(-c3ccc(Cl)c(F)c3)[nH]c(=O)c2c1C1CC1"
  pIC50: 9.21

Let us move to another entry and its pIC50.
Query: What value of pIC50 has been recorded for this entry: COCc1c(C(=O)N[C@H](C)c2ccc(F)cc2)nn2cc(-c3ccc4ccccc4c3)[nH]c(=O)c12
Result: 8.96

###

molecular target: UniProt P43115; assay: Cellular in vitro assay for determining EP3 receptor activity (human EP3 cell line, sulprostone-stimulated calcium luminescence); settings: CHO cells expressing human EP3 and mitochondrial Clytin; antagonist mode, sulprostone at EC50; read-out: EP3 CHO mtCLY ANTAG IC50
Property name: log10 of IC50 (log10 of the value in nM)
Response schema: value (number) is log10 of IC50 in units of nM.

- Molecule: "CCCc1c(C(=O)NC2(c3ccc(F)cc3)CN(C)C2)nn2cc(-c3ccc(C)c(C)c3)[nH]c(=O)c12 [6-616]"
  Assay system: "UniProt P43115"
  Property name: "log10 of IC50"
  Numeric value: -0.11
- Molecule: "Cc1nc(-c2cn3nc(C(=O)N[C@@H](c4ccc(F)cc4)C(C)(C)O)c(C4CC4)c3c(=O)[nH]2)ccc1Cl [6-590]"
  Assay system: "UniProt P43115"
  Property name: "log10 of IC50"
  Numeric value: 0.08

Query: Look up log10 of IC50: Cc1cc(-c2cn3nc(C(=O)NC4(c5ccc(F)cc5)CN(C5CC5)C4)c(C(F)(F)F)c3c(=O)[nH]2)ccc1Cl [6-238]
Result: 0.15

Query: Consider the molecule shown here: Cc1ccc(-c2cn3nc(C(=O)NC(CO)C(F)(F)F)c(C4CC4)c3c(=O)[nH]2)cc1C(F)(F)F (racemic) [6-248] What is its recorded log10 of IC50?
Result: 0.39

Query: Fill in: log10 of IC50 of O=C(NC(c1ccc(F)cc1)C1(O)CC1)c1nn2cc(-c3ccc(Cl)c(Cl)c3)[nH]c(=O)c2c1C1CC1 (single isomer, unassigned) [6-423] is ___
Result: -0.21

###

Listed here: items and their measured IC50.
molecular target: human EP3 receptor (Homo sapiens); assay: Cellular in vitro assay for determining EP3 receptor activity (human EP3 cell line, sulprostone-stimulated calcium luminescence); details: CHO cells expressing human EP3 and mitochondrial Clytin; antagonist mode, sulprostone at EC50; read-out: EP3 CHO mtCLY ANTAG IC50
Unit nM implied. Number only.

- Compound: "Cc1cc(-c2cn3nc(C(=O)N[C@@H](c4ccc(F)cc4)C(C)(C)O)c(C4CC4(F)F)c3c(=O)[nH]2)ccc1Cl (stereo partly shown)"
  IC50 / nM: 1.7
- Compound: "Cc1ccc(-c2cn3nc(C(=O)NCCC(O)C(F)(F)F)c(C4CC4)c3c(=O)[nH]2)cc1F (single isomer, unassigned) [6-368]"
  IC50 / nM: 0.87
- Compound: "COc1ccc([C@@H](C)NC(=O)c2nn3cc(-c4ccc5ccccc5c4)[nH]c(=O)c3c2C(F)(F)F)cn1"
  IC50 / nM: 0.6
- Compound: "C[C@@H](NC(=O)c1cc2c(=O)[nH]c(-c3ccc4ccccc4c3)cn2n1)c1ccc(C(F)(F)F)cc1"
  IC50 / nM: 1.6
- Compound: "CC[C@@H](NC(=O)c1nn2cc(-c3ccc4ccccc4c3)[nH]c(=O)c2c1C#N)c1ccccc1"
  IC50 / nM: 2

Query: What does the data say about its IC50? Entry: Cc1cc(-c2cn3nc(C(=O)NCC(N)C(F)(F)F)c(C4CC4)c3c(=O)[nH]2)ccc1C(F)(F)F (single isomer, unassigned) [6-131]
Result: 10.1

Query: # get_value(readout='IC50', item= Cc1ccc(-c2cn3nc(C(=O)N[C@@H](C)CO)c(C4CC4)c3c(=O)[nH]2)cc1C )
Result: 1.5
